Data origin: patent US9840481B2

target: human α7 nAChR stably expressed in a HEK cell line (with human RIC-3) (Homo sapiens); construct: PrecisION hnAChR α7/RIC-3; assay: Automated patch-clamp electrophysiology functional assay (Assay A), IonFlux HT, whole-cell population patch; type: cell-based; conditions: automated patch-clamp electrophysiology functional assay (Assay A); potency class by EC50; read-out: α7 nAChR Potency
pEC50: −log10 of the molar value.
attribute measured: pEC50

> print(dat)
                                   compound                             target.system  attribute.measured  reported.result
1  CC1(C)[C@H](c2ccc(S(N)(=O)=O)cc2)[C@H]1c1cnn(C2CCCC2)c1 [Example L8]  human α7 nAChR stably expressed in a HEK cell line (with human RIC-3) (Homo sapiens)               pEC50     5.30 to 6.30
2  Cn1ccc(-c2nc([C@H]3[C@H](c4ccc(S(N)(=O)=O)cc4)C3(C)C)no2)c1 [Example I10]  human α7 nAChR stably expressed in a HEK cell line (with human RIC-3) (Homo sapiens)               pEC50     5.30 to 6.30
3  CC1(C)[C@@H](c2ccc(S(N)(=O)=O)cc2)[C@@H]1c1noc(C2CCC(O)CC2)n1 (some centres unmarked) [Example I29]  human α7 nAChR stably expressed in a HEK cell line (with human RIC-3) (Homo sapiens)               pEC50     4.30 to 5.30
4  NS(=O)(=O)c1ccc([C@@H]2C[C@H]2c2noc(-c3cncc(F)c3)n2)cc1 [Example I36]  human α7 nAChR stably expressed in a HEK cell line (with human RIC-3) (Homo sapiens)               pEC50     5.30 to 6.30
5  CC1(C)[C@H](c2ccc(S(N)(=O)=O)cc2)[C@H]1c1nc(C2CCCCC2)no1 [Example 20]  human α7 nAChR stably expressed in a HEK cell line (with human RIC-3) (Homo sapiens)               pEC50     5.30 to 6.30
6  CC1(C)[C@@H](c2ccc(S(N)(=O)=O)cc2)[C@@H]1c1noc(C2CCCCC23CC3)n1 (some centres unmarked) [Example I27]  human α7 nAChR stably expressed in a HEK cell line (with human RIC-3) (Homo sapiens)               pEC50     6.30 to 7.00
7  NS(=O)(=O)c1ccc([C@@H]2[C@@H](c3nsc(N4CCCCC4)n3)C2(F)F)cc1 [Example L12]  human α7 nAChR stably expressed in a HEK cell line (with human RIC-3) (Homo sapiens)               pEC50     6.30 to 7.00
8  NS(=O)(=O)c1ccc([C@@H]2C[C@H]2c2csc(C3CCCC3)n2)cc1 [Example L14]  human α7 nAChR stably expressed in a HEK cell line (with human RIC-3) (Homo sapiens)               pEC50     5.30 to 6.30

====

Below, each entry is listed with its recorded EC50.
target: human α7 nAChR stably expressed in a HEK cell line (with human RIC-3) (Homo sapiens, UniProt P36544); construct: PrecisION hnAChR α7/RIC-3; assay: Automated patch-clamp electrophysiology functional assay (Assay A), IonFlux HT, whole-cell population patch; type: cell-based; settings: automated patch-clamp electrophysiology functional assay (Assay A); potency class by EC50; read-out: α7 nAChR Potency
Sequence (P36544 23-502): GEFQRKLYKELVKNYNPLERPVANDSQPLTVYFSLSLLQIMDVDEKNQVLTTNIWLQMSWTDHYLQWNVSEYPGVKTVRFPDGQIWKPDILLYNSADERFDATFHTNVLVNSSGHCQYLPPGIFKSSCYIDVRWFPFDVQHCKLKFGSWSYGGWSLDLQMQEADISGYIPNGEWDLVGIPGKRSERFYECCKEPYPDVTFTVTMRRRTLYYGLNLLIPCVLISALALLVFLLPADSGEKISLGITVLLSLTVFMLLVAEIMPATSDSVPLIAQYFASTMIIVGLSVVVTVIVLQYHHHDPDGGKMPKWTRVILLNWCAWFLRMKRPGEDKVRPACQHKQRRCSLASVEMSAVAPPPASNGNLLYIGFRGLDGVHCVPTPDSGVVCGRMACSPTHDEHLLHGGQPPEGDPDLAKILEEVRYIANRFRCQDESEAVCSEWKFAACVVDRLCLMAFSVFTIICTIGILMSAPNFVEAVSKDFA
attribute measured: EC50

> print(dat)
                                        smi  reported.result
1  NS(=O)(=O)c1ccc([C@@H]2C[C@H]2c2ncc(-c3cccc(F)c3)s2)cc1    100 to 500 nM
2  NS(=O)(=O)c1ccc([C@@H]2C[C@H]2c2nc(-c3ccc(F)cc3C(F)(F)F)no2)cc1   500 to 5000 nM
3  CC(C)(C)c1coc([C@@H]2[C@@H](c3ccc(S(N)(=O)=O)cc3)C2(C)C)n1   500 to 5000 nM
4  CC1(C)[C@H](c2ccc(S(N)(=O)=O)cc2)[C@H]1c1nnc(-c2ccccc2)s1    100 to 500 nM
